- target or system: Neuromedin-K receptor (Homo sapiens, UniProt P29371)
- Sequence (P29371 whole entry): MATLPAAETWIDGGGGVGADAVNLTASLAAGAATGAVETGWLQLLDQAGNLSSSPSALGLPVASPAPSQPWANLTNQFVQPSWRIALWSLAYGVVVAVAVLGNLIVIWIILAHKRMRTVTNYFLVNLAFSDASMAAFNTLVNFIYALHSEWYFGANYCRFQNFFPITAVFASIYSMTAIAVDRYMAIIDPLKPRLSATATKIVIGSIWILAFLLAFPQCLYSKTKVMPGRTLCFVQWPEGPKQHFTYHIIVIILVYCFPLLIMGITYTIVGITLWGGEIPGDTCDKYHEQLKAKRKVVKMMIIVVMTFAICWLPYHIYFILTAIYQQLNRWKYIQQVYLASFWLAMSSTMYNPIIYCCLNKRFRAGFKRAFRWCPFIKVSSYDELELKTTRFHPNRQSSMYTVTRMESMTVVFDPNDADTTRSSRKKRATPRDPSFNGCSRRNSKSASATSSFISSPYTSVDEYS
- procedure summary: Displacement of [125I]His3, MePhe7 from human NK3R expressed in CHO cell membranes by scintillation counting
pIC50: −log10 of the molar value. *1 amine or outer side, *2 acyl side, *3 side chain or, on linkers, in order; H or OH if unused. Where a SMILES comes first, the peptide text is derived from it. [ ]: non-standard residue; d: D form. Glyψ(E-CHCH)Leu = CC(C)C[C@H](/C=C/CN[*:1])C(=O)[*:2]; X4 = CC(C)C[C@H](N/C(CN[*:1])=N\O)C(=O)[*:2]; X1 = CC(C)C[C@H](CCCN[*:1])C(=O)[*:2]; NMeF = CN[C@@H](Cc1ccccc1)C(=O)O; Suc = O=C(CCC(=O)[*:2])[*:1]
recorded endpoint: pIC50

(1) CSCC[C@H](NC(=O)[C@H](CC(C)C)NC(=O)CNC(=O)[C@H](Cc1ccccc1)N(C)C(=O)[C@H](Cc1ccccc1)NC(=O)[C@H](Cc1ccccc1)NC(=O)[C@H](CC(=O)O)NC(=O)[C@H](Cc1cnc[nH]1)NC(=O)[C@@H](N)CCSC)C(N)=O (H-MHDFF[NMeF]GLM-NH2)
(2) CSCC[C@H](NC(=O)[C@H](CC(C)C)N/C(CNC(=O)[C@H](Cc1ccccc1)N(C)C(=O)[C@H](Cc1ccccc1)NC(=O)[C@H](CC(=O)O)NC(=O)CCC(=O)O)=N\O)C(N)=O (Suc-DF[NMeF][X4]M-NH2)
(3) CSCC[C@H](NC(=O)[C@@H](CCCNC(=O)[C@H](Cc1ccccc1)N(C)C(=O)[C@H](Cc1ccccc1)NC(=O)[C@H](CC(=O)O)NC(=O)CCC(=O)O)CC(C)C)C(N)=O (Suc-DF[NMeF][X1]M-NH2)
(4) CSCC[C@H](NC(=O)[C@@H](/C=C/CNC(=O)[C@H](Cc1ccccc1)N(C)C(=O)[C@H](Cc1ccccc1)NC(=O)[C@H](CC(=O)O)NC(=O)CCC(=O)O)CC(C)C)C(N)=O (Suc-DF[NMeF][Glyψ(E-CHCH)Leu]M-NH2)
INPUT: Arrange the items listed above so that pIC50 rises from first to last. Answer with the labels in sequence, matching the requested order.
OUTPUT: 3, 2, 4, 1
(3: 4.72, 2: 5.96, 4: 7.25, 1: 7.66)
